Test: chemical genetic growth profiling, strain panel (AID 1159580);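 note: tested at 20 µM; growth read once vehicle control cultures reached saturation at 30 °C; 1 = growth at the plate median or of vehicle wells; lower values mean less growth of the strain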
Conditions: S. cerevisiae deletion strains, growth OD, locus YDL035C, strain GPR1
In all, about 5,500 compounds went through this assay and about 2,000 (36%) were called active. Not shown: some 18% with an inconclusive outcome. Cut-off read from the data, not from the text of the source: active = normalized growth mostly below about 0.91 (no sharp cut-off); inconclusive = no clear call, values can overlap the other calls; inactive = mostly above about 0.92. The list shows a part of the results.
// one of active, inactive, no free text

CC(=O)OCC(=O)[C@@]1(O)CCC2C3CCC4=CC(=O)C=CC4(C)C3[C@@H](O)C[C@@]21C (some centres undefined)
inactive
Cc1nnc(NS(=O)(=O)c2ccc(N)cc2)s1
inactive
CC(=O)O[C@H]1C[C@@H](OC(C)=O)C(C)(C)C2C[C@@H](O)[C@]3(C)C(CC[C@@]4(C)[C@H](c5ccoc5)OC(=O)[C@H]5O[C@]543)[C@]21C (some centres undefined)
inactive
O=c1oc2ccccc2cc1O
inactive
CCCCCCCCCCCC(=O)OCC(COP(=O)(O)OCC(O)COP(=O)(O)OCC(COC(=O)CCCCCCCCCCC)OC(=O)CCCCCCCCCCC)OC(=O)CCCCCCCCCCC (centres undefined)
active
Fc1ccc([C@@H]2CCNC[C@H]2COc2ccc3c(c2)OCO3)cc1
inactive
C[C@]12CCC3C(CC[C@H]4C[C@@H](O)CC[C@]34C)C1CC[C@@H]2O (some centres undefined)
inactive
CC(=O)C1CCC2C3CCC4C[C@H](O)CCC4(C)C3C[C@H](O)C12C (some centres undefined)
inactive

Now take the following compound into account.
I would be grateful if you could indicate the recorded call for CC(=O)N[C@@H](CCC(=O)O)C(=O)O . inactive

###

Test: chemical genetic growth profiling, strain panel (AID 1159580)
Conditions: S. cerevisiae deletion strains, growth OD, locus YMR125W, strain sto1
Out of some 5,500 compounds screened, about 2,000 (36%) were called active. Not shown: some 18% with an inconclusive outcome. Cut-off read from the data, not from the text of the source: active = normalized growth mostly below about 0.91 (no sharp cut-off); inconclusive = no clear call, values can overlap the other calls; inactive = mostly above about 0.92. The list shows a part of the results.
// one of active, inactive, no free text

COP(=S)(OC)Oc1ccc(Sc2ccc(OP(=S)(OC)OC)cc2)cc1
inactive

I would be grateful if you could indicate the recorded call for CC(=O)O[C@@H]1CC2C(C)(C)C(=O)C3OC3[C@]2(C)C2CC[C@@]3(C)[C@H](c4ccoc4)OC(=O)C4OC43[C@@]21C (some centres undefined) . inactive

I would be grateful if you could indicate the recorded call for Cc1onc(-c2ccccc2)c1-c1ccc(S(N)(=O)=O)cc1 . inactive

I would be grateful if you could indicate the recorded call for O=C(O)CCC1NCC2CC1CN1CCCCC21 (centres undefined) . inactive

I would be grateful if you could indicate the recorded call for CC(=O)O[C@@H]1CC2C(C)(C)[C@H](O)C=C[C@]2(C)C2CC[C@@]3(C)[C@H](c4ccoc4)OC(=O)C4OC43[C@@]21C (some centres undefined) . inactive

I would be grateful if you could indicate the recorded call for CC1CCC(NC(=O)N(CCCl)N=O)CC1 (centres undefined) . active

I would be grateful if you could indicate the recorded call for COc1c(C)c2c(c(O)c1C/C=C(\C)CCC(=O)O)C(=O)OC2 . active

I would be grateful if you could indicate the recorded call for CCN1C[C@@]2(COC)C3[C@@H](OC)[C@H]4[C@@H]1[C@]3(C(OC)C[C@H]2O)C1C[C@@]2(O)[C@H](OC(=O)c3ccccc3)C1[C@]4(OC(C)=O)[C@@H](O)[C@@H]2OC (some centres undefined) . inactive

I would be grateful if you could indicate the recorded call for CC(=O)O[C@H]1C[C@@H](OC(C)=O)C(C)(C)C2C[C@@H](O)[C@]3(C)C(CC[C@@]4(C)[C@H](c5ccoc5)OC(=O)[C@H]5O[C@]543)[C@]21C (some centres undefined) . inactive

I would be grateful if you could indicate the recorded call for NCC[C@@H](O)C(=O)N[C@@H]1C[C@H](N)[C@@H](O[C@H]2O[C@H](CN)[C@@H](O)[C@H](O)[C@H]2O)[C@H](O)[C@H]1O[C@H]1O[C@H](CO)[C@@H](O)[C@H](N)C1O (some centres undefined) . inactive

I would be grateful if you could indicate the recorded call for Oc1c(Cl)cc(Cl)c(Cl)c1Cc1c(O)c(Cl)cc(Cl)c1Cl . active

I would be grateful if you could indicate the recorded call for C=C[C@@]1(C)CC(=O)[C@@]2(O)[C@](C)(O1)[C@@H](OC(C)=O)[C@@H](O)C1C(C)(C)CC[C@H](O)[C@@]12C (some centres undefined) . inactive

I would be grateful if you could indicate the recorded call for COC(=O)[C@@H]1OC(=O)C2OC23[C@@]1(C)CCC1[C@]2(C)C(C[C@@H](O)[C@]13C)C(C)(C)[C@H](OC(C)=O)C[C@@H]2OC(C)=O (some centres undefined) . inactive

I would be grateful if you could indicate the recorded call for c1ccc2c(CC3=NCCN3)cccc2c1 . inactive

I would be grateful if you could indicate the recorded call for NCCCCCC(=O)O . inactive

I would be grateful if you could indicate the recorded call for CC(=O)O[C@H]1CC[C@@]2(C)C(C[C@@H](OC(C)=O)[C@]3(C)C2CC[C@@]2(C)[C@H](c4ccoc4)OC(=O)[C@H]4O[C@]423)C1(C)C (some centres undefined) . inactive

###

Assay: chemical genetic growth profiling, strain panel (AID 1159580);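 note: tested at 20 µM; growth read once vehicle control cultures reached saturation at 30 °C; 1 = growth at the plate median or of vehicle wells; lower values mean less growth of the strain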
Settings: S. cerevisiae deletion strains, growth OD, locus YKR001C, strain vps1, hits give low values
Out of some 5,500 compounds screened, about 2,000 (36%) were called active. Inconclusive results (about 18%) are left out. This is one part of the list. Where a SMILES comes first, the peptide text is derived from it.
observable: normalized growth

Reference set (4 entries):
CC(=O)OC1CC(O)C(C)(C)C2CC(=O)C3(C)C(CCC4(C)C(c5ccoc5)OC(=O)C5OC543)C12C (stereo unspecified)
1 (inactive)
C[C@]12CCC3c4ccc(OC(=O)CCC(=O)O)cc4CCC3C1CCC2=O (stereo partly specified)
0.836 (active)
Cc1cc(/C=C/c2ccc3cc(N(C)C)ccc3[n+]2C)c(C)n1-c1ccccc1
0.987 (inactive)
NC(N)=NCCCCN=C(N)N
1.01 (inactive)

Recorded normalized growth for NC(=O)NC1NC(=O)NC1=O (stereo unspecified) , please? 0.984 (inactive)

Recorded normalized growth for COc1ccc2c(=O)c(OC)c(-c3ccccc3)oc2c1 , please? 0.848 (active)

Recorded normalized growth for COc1ccc2c(c1)OCC(Cc1ccc(OC)c(O)c1)C2=O (stereo unspecified) , please? 0.964 (inactive)

Recorded normalized growth for CC(=O)Oc1ccc2c(c1)CCC1C2CC[C@]2(C)C(=O)CCC12 (stereo partly specified) , please? 1.01 (inactive)

Recorded normalized growth for NCCCCC(=O)O , please? 0.996 (inactive)

Recorded normalized growth for CC(=O)N[C@@H](CC(=O)O)C(=O)N[C@@H](CCC(=O)O)C(=O)O (Ac-Asp-Glu-OH) , please? 0.989 (inactive)

Recorded normalized growth for NC(N)=NCCN1CCCCCCC1 , please? 1.03 (inactive)

Recorded normalized growth for COC1=CC(=O)OC(CCc2ccc(OC)c(OC)c2)C1 (stereo unspecified) , please? 1.04 (inactive)

Recorded normalized growth for CN(C)C(=O)Oc1ccc[n+](C)c1 , please? 1.01 (inactive)

###

The following molecules are shown together with reported normalized growth values.
Experiment: chemical genetic growth profiling, strain panel (AID 1159580);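 note: tested at 20 µM; growth read once vehicle control cultures reached saturation at 30 °C; 1 = growth at the plate median or of vehicle wells; lower values mean less growth of the strain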
Settings: S. cerevisiae deletion strains, growth OD, locus YDR195W, strain ref2
About 2,000 (36%) of roughly 5,500 compounds were called active. Another 18% or so got no clear call; they are omitted. The list shows a part of the results. Where a SMILES comes first, the peptide text is derived from it.
Please give only the number in your answer, with no unit.

O=c1[nH]c(=O)n(C2C[C@H](O)[C@@H](CO)O2)cc1C(F)(F)F (stereo partly drawn)
0.922
CC(=O)N[C@@H](CC(=O)O)C(=O)N[C@@H](CCC(=O)O)C(=O)O (Ac-Asp-Glu-OH)
0.985
O=c1cccc2n1CC1CC2CN2CCCC[C@@H]12 (stereo partly drawn)
0.946
CN[C@@H]1C(OC2[C@H](O[C@H]3[C@H](O)[C@@H](O)[C@H](N=C(N)N)[C@@H](O)[C@@H]3N=C(N)N)OC(C)[C@]2(O)CO)OC(CO)C(O)C1O (stereo partly drawn)
0.942

Recorded normalized growth for CC(C)/C(O)=C1/C(=O)O[C@@H](c2ccoc2)[C@]2(C)C(O)[C@@H](O)[C@@]34OC5(C)OC67CC(C)(C(O)[C@]6(O)[C@@H](O)[C@]3(O5)C12)[C@H](CC(=O)O)[C@]74C (stereo partly drawn) , please? 0.974

###

Experiment: chemical genetic growth profiling, strain panel (AID 1159580);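 note: tested at 20 µM; growth read once vehicle control cultures reached saturation at 30 °C; 1 = growth at the plate median or of vehicle wells; lower values mean less growth of the strain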
Settings: S. cerevisiae deletion strains, growth OD, locus YBR023C, strain chs3, hits give low values
Out of some 5,500 compounds screened, about 2,000 (36%) were called active. Another 18% or so got no clear call; they are omitted. The list shows a part of the results.
observable: normalized growth
Please give only the number in your answer, with no unit.

NC1(C(=O)O)CC1
1.03
CC(=O)O[C@@H]1CC2C(C)(C)[C@@H](O)CC[C@]2(C)C2CC[C@@]3(C)[C@H](c4ccoc4)OC(=O)[C@H]4O[C@]43[C@@]21C (stereo not given in full)
0.991
NC1(C(=O)O)CCCC1
1.02

Recorded normalized growth for CCC(C)C(=O)c1c(O)c(C)c2oc3c(C)c(O)c(C(=O)C(C)CC)c(O)c3c2c1O (stereo not given) , please? 0.971

Recorded normalized growth for CC1(C)C(=O)[C@@H]2O[C@@H]2[C@@]2(C)C1C[C@@H](O)[C@]1(C)C2CC[C@@]2(C)[C@H](c3ccoc3)OC(=O)C3OC321 (stereo not given in full) , please? 0.998

Sourced from PubChem BioAssay AID1159580
